For each record, write down the corresponding Purity.
assay: Stability test of crystalline forms (high temperature, high humidity, irradiation; HPLC purity and crystal form); type: physicochemical; conditions: High temperature 60° C., open container, Day 0
Answers are plain numbers, in %.

Record excerpt, results attached:
{"columns": ["Molecule", "Result"],
 "data": [
  ["CC1(C)CCC(CN2CCN(c3ccc(C(=O)NS(=O)(=O)c4ccc(NC[C@H]5COCCO5)c([N+](=O)[O-])c4)c(Oc4cnc5[nH]ccc5c4)c3)CC2)=C(c2ccc(C(F)(F)F)cc2Cl)C1 [Amorphous form]", 97.91],
  ["CC1(C)CCC(CN2CCN(c3ccc(C(=O)NS(=O)(=O)c4ccc(NC[C@H]5COCCO5)c([N+](=O)[O-])c4)c(Oc4cnc5[nH]ccc5c4)c3)CC2)=C(c2ccc(C(F)(F)F)cc2Cl)C1 [Crystalline form A]", 97.92]
]}

Now look at this entry.
Field Purity (entry CC1(C)CCC(CN2CCN(c3ccc(C(=O)NS(=O)(=O)c4ccc(NC[C@H]5COCCO5)c([N+](=O)[O-])c4)c(Oc4cnc5[nH]ccc5c4)c3)CC2)=C(c2ccc(C(F)(F)F)cc2Cl)C1 [Crystalline form B] ) reads 98.44
